test system: A549 NSCLC; test: NCI tumour cell line growth inhibition, 48 h
Reported TGI values are given for each entry in this list.
The reply should contain only the number, in µM.

Reference set, count: 4
>>> testresult("CO[C@@H]1C[C@H]2[C@@H]3CC[C@H]([C@@H](C)COC(C)=O)[C@@]3(C)CC[C@@H]2[C@@]2(C)CC[C@H]3C[C@]312")
37.3
>>> testresult("CC12CCC3C(CCC4(O)C=CCCC34C=O)C1(O)CC(O)C2c1ccc(=O)oc1 (stereo not given)")
0.0646
>>> testresult("CC1(C)CCCCC1/C=C/C(CC(O)(C(F)(F)F)C(F)(F)F)=N\\Nc1ccc([N+](=O)[O-])cc1[N+](=O)[O-] (stereo not given)")
3.59
>>> testresult("Fc1cc(C2=Nn3c(nnc3-c3cc(F)c(Cl)cc3Cl)SC2)c(Cl)cc1Cl")
83.5

Shifting focus to the molecule that follows.
QUERY: Endpoint output: TGI of `O=C(/C=C/c1cccnc1)c1ccccc1` . Value?
RESULT: 34.2

====

tested on: MDA-N; assay: NCI tumour cell line growth inhibition, 48 h
Reported log10 TGI values are given for each entry in this list.
Please keep in mind that the values are log10 of TGI expressed in µM.

Reference set, count: 4
>>> testresult("CCOC(=O)c1sc2c(c1OC(=O)c1ccc(Cl)cc1Cl)c(=O)n(-c1ccccc1)c(=S)n2-c1ccccc1")
1.84
>>> testresult("C=CC[C@H](O)[C@@](NC(=O)OCc1ccccc1)(Sc1ccc(C)cc1)C(F)(F)F")
1.67
>>> testresult("Cc1ccc2[nH]c3c(C)c4cc[n+](C)cc4c(C)c3c2c1")
1.34
>>> testresult("CC(=O)OCc1cc(OC(C)=O)c2cc3c(OC(C)=O)cccc3c(OC(C)=O)c2c1")
1.61

QUERY: Endpoint output: log10 TGI of `CCCC(c1cc(C(C)(C)C)c(O)cc1C)c1cc(C(C)(C)C)c(O)cc1C` . Value?
RESULT: 0.59

====

system: A498 renal; assay: NCI tumour cell line growth inhibition, 48 h; in the data active means GI50 below about 0.43 µM; inactive means the rest
Just give me one of these, please: active, inactive

>>> qualitativelabel("CC[C@@]1(O)C(=O)OCc2c1cc1n(c2=O)Cc2cc3c(OC)cccc3nc2-1")
"active"
>>> qualitativelabel("Clc1ccc(Nc2ncnc3ccccc23)cc1")
"inactive"
>>> qualitativelabel("CN1CCN(C(=O)OCc2nc3c(N4CCOCC4)nc(-c4ccccc4)nc3n2C)CC1")
"inactive"
>>> qualitativelabel("CCOC(=O)c1c2c(n(Cc3ccccc3)c1C)-c1nc[nH]c1C(=O)C2=O")
"inactive"
>>> qualitativelabel("CC12OC(C(=O)C13CC3)C1C(=O)c3cccc(O)c3C(=O)C12 (stereo not given)")
"inactive"
>>> qualitativelabel("CC1(C)CC[C@]2(CO)CC[C@]3(C)C(=CC[C@@H]4[C@@]5(C)CC[C@H](NCO)C(C)(C)[C@@H]5CC[C@]43C)[C@@H]2C1")
"inactive"
>>> qualitativelabel("COC(=O)Nc1nc2ccc(C(=O)C3CC3)cc2[nH]1")
"active"
>>> qualitativelabel("CCN1C2=C(SC(=S)C1=C1SC(C(=O)c3ccccc3)=C(C(=O)c3ccccc3)S1)SC(=Nc1ccccc1)C2=O")
"inactive"
>>> qualitativelabel("CSc1nc(SC)c2cnn(-c3ccnc4cc(Cl)ccc34)c2n1")
"inactive"
>>> qualitativelabel("O=C1NC(=N[C@@H]2C[C@H]2c2ccccc2)S/C1=C\\c1ccc2ncccc2c1")
"inactive"

QUERY: Given `COc1ccc(-c2nc(Nc3ccc(F)cc3)nc(Nc3ccc4c(c3)nc(C)n4Cc3ccccc3)n2)cc1` , state the outcome it received in this test.
RESULT: inactive

QUERY: Given COc1ccc2c(c1)OC(N)=C(C#N)C2c1ccc(F)c(F)c1 (stereo not given) , state the outcome it received in this test.
RESULT: active

====

Reported TGI values are given for each entry in this list.
system: SNB-75 CNS; assay: NCI tumour cell line growth inhibition, 48 h
The reply should contain only the number, in µM.

>>> testresult("O=C(CSc1nc2ccc([N+](=O)[O-])cc2[nH]1)Nc1ccc([N+](=O)[O-])cc1")
6.95
>>> testresult("COc1ccccc1NC(=S)NNC(=O)c1cc(-c2ccccc2)nc2ccccc12")
85
>>> testresult("CC12CCC3C(CCC4(O)C=CCCC34C=O)C1(O)CC(O)C2c1ccc(=O)oc1 (configuration not stated)")
0.246
>>> testresult("CC[n+]1c(/C=C/c2ccc(N3CCCC3)cc2)cccc1/C=C/c1ccc(N2CCCC2)cc1")
0.88
>>> testresult("C/C(=N/NC(=S)Nc1ccccc1C)c1ccccn1")
16.3
>>> testresult("CCOC(=O)c1c2c(n(Cc3ccccc3)c1C)-c1nc[nH]c1C(=O)C2=O")
16.2

QUERY: Endpoint output: TGI of `COc1cc2c3c(n(CCCNC(C)(C)CO)c(=O)c2cc1OC)-c1cc2c(cc1C3=O)OCO2` . Value?
RESULT: 44

QUERY: Endpoint output: TGI of `Nc1nc(N)c2cc(Sc3ccc(Cl)cc3)ccc2n1` . Value?
RESULT: 18.7

QUERY: Endpoint output: TGI of `Brc1ccc(N=C/C=C(\Nc2ccc(Br)cc2)C23CC4CC(CC(C4)C2)C3)cc1` . Value?
RESULT: 35.5

QUERY: Endpoint output: TGI of Cc1ccc(S(=O)(=O)NN=C2C(C)CC(C(C)(C)C)CC2C)cc1 (configuration not stated) . Value?
RESULT: 37.8

QUERY: Endpoint output: TGI of `CC[C@H](C)[C@H](NC(=O)[C@H](Cc1ccc(O)cc1)NCC(F)(F)F)C(=O)OC(C)(C)C` . Value?
RESULT: 17.5

QUERY: Endpoint output: TGI of `CCOc1ccc(-n2c(=O)c3nn4c(=O)n(-c5ccc(OCC)cc5)c(=O)c4nn3c2=O)cc1` . Value?
RESULT: 75.7

QUERY: Endpoint output: TGI of `Oc1c(CCl)cc(Cl)cc1Cc1cc(Cl)cc(Cc2cc(Cl)cc(CCl)c2O)c1O` . Value?
RESULT: 80.2

QUERY: Endpoint output: TGI of `COc1cc(/C=C(\C)c2ccc3c(c2)OCO3)cc(OC)c1OC` . Value?
RESULT: 37.8

QUERY: Endpoint output: TGI of `O=C(NC(=S)Nc1ccc(-c2nc3ccccc3[nH]2)cc1)c1ccc2ccccc2c1` . Value?
RESULT: 3.38

QUERY: Endpoint output: TGI of `c1ccc2c(CNCCCN3CCN(CCCNCc4cccc5ccccc45)CC3)cccc2c1` . Value?
RESULT: 3.15

QUERY: Endpoint output: TGI of `Cc1c(/C=N/NC(=S)Nc2ccc([N+](=O)[O-])cc2)c(=O)n(-c2ccccc2)n1C` . Value?
RESULT: 26.3

QUERY: Endpoint output: TGI of CC1(C)CCCCC1/C=C/C(CC(O)(C(F)(F)F)C(F)(F)F)=N\Nc1ccc([N+](=O)[O-])cc1[N+](=O)[O-] (configuration not stated) . Value?
RESULT: 11.7

====

test system: SK-MEL-2 melanoma; test: NCI tumour cell line growth inhibition, 48 h; in the data active means GI50 below about 0.43 µM; inactive means the rest
Just give me one of these, please: TRUE (active), FALSE (inactive)

>>> qualitativelabel("COc1c(O)cc2c(c1CC=C(C)C)OC(=O)c1c(cc(O)c(CC=C(C)C)c1O)O2")
"FALSE"
>>> qualitativelabel("Fc1cc(C2=Nn3c(nnc3-c3cc(F)c(Cl)cc3Cl)SC2)c(Cl)cc1Cl")
"FALSE"

QUERY: Given `Oc1c(CCl)cc(Cl)cc1Cc1cc(Cl)cc(Cc2cc(Cl)cc(CCl)c2O)c1O` , state the outcome it received in this test.
RESULT: FALSE

====

test system: OVCAR-5 ovarian; experiment: NCI tumour cell line growth inhibition, 48 h
Reported TGI values are given for each entry in this list.

>>> testresult("Cc1cc(C)c(S(=O)(=O)N(CCCCCCN)OCCCON(CCCCCCN)S(=O)(=O)c2c(C)cc(C)cc2C)c(C)c1")
"2.72 µM"

QUERY: Endpoint output: TGI of `COc1cc2c(OC)c3cc(C)oc(=O)c3c(O)c2c(O)c1-c1c(OC)cc2c(OC)c3cc(C)oc(=O)c3c(O)c2c1O` . Value?
RESULT: 40.9 µM

QUERY: Endpoint output: TGI of `CNC(=O)Nn1c(SC)nc2ccccc21` . Value?
RESULT: > 100 µM

====

system: OVCAR-4 ovarian; assay: NCI tumour cell line growth inhibition, 48 h; in the data active means GI50 below about 0.43 µM; inactive means the rest
Just give me one of these, please: 1 for active, -1 for inactive

Example cases with answers are listed next.
>>> qualitativelabel("O=C(/C=C/c1cccnc1)c1ccccc1")
-1
>>> qualitativelabel("COc1c(O)cc2c(c1CC=C(C)C)OC(=O)c1c(cc(O)c(CC=C(C)C)c1O)O2")
-1
>>> qualitativelabel("CCN1C2=C(SC(=S)C1=C1SC(C(=O)c3ccccc3)=C(C(=O)c3ccccc3)S1)SC(=Nc1ccccc1)C2=O")
-1
>>> qualitativelabel("Cc1cc(S(=O)(=O)Nc2n[nH]c(-c3ccc(Cl)cc3)c2C#N)c(S)cc1Cl")
-1
>>> qualitativelabel("CC12OC(C(=O)C13CC3)C1C(=O)c3cccc(O)c3C(=O)C12 (stereo not given)")
-1

QUERY: Given `Clc1ccc(Nc2ncnc3ccccc23)cc1` , state the outcome it received in this test.
RESULT: -1

QUERY: Given `Nc1nc(N)c2cc(Sc3ccc(Cl)cc3)ccc2n1` , state the outcome it received in this test.
RESULT: -1

QUERY: Given `O=C(NC(=S)Nc1ccc(-c2nc3ccccc3[nH]2)cc1)c1ccc2ccccc2c1` , state the outcome it received in this test.
RESULT: -1

QUERY: Given `CC(C)[C@]12O[C@H]1[C@@H]1O[C@]13[C@]1(O[C@H]1C[C@H]1C4=C(CC[C@@]13C)C(=O)OC4)[C@@H]2OC(=O)OC(C)(C)C` , state the outcome it received in this test.
RESULT: 1

QUERY: Given `CCOC(=O)Cc1csc(Nc2nc(O)c(C3=c4ccccc4=NC3=O)s2)n1` , state the outcome it received in this test.
RESULT: -1
